Counter-ions that a name gives are not always drawn.
In this section we review reported melting point values for a set of compounds.
Property: melting point

compound=Cn1cc(C(=O)c2ccnc(Cl)c2)cc1C(=O)c1ccc(Cl)cc1 reading="182 to 184 °C"
compound=Cn1cc(C(=O)c2ccccn2)cc1C(=O)c1ccc(Cl)cc1 reading="138 to 139 °C"
compound=Cn1cc(C(=O)c2cnc[nH]2)cc1C(=O)c1ccc(Cl)cc1 reading="198 to 200 °C"
compound=Cn1cc(C(=O)c2ccc(Cl)cc2)cc1C(=O)c1ccc(Cl)nc1 reading="150 to 152 °C"
compound="Cn1cc(C(O)c2ccncc2)cc1C(=O)c1ccc(Cl)cc1 (stereo not drawn)" reading="145 to 146 °C"
compound=Cn1cc(C(=O)c2ccc3ccccc3c2)cc1C(=O)c1cccnc1 reading="132 to 133 °C"
compound=Cc1c(C(=O)c2ccc(F)cc2)c(C)n(C)c1C(=O)c1cccnc1 reading="85 to 88 °C"
compound=Cn1cc(C(=O)c2ccncc2)cc1C(=O)c1ccc(Cl)cc1 reading="174 to 175 °C"
compound=Cn1cc(C(=O)c2ccc(F)cc2)cc1C(=O)c1ccncc1 reading="155 to 157 °C"
compound="Cc1c(C(O)c2ccncc2)c(C)n(C)c1C(=O)c1ccc(Cl)cc1 (stereo not drawn) (as salt: hydrochloride)" reading="174 to 176 °C"
compound=Cn1cc(C(=O)c2ccc(F)cc2)cc1C(=O)c1ccccn1 reading="159 to 161 °C"
compound=Cn1cc(C(=O)c2ccncc2)cc1C(=O)c1ccccc1 reading="127 to 129 °C"
compound=Cc1ccc(C(=O)c2cc(C(=O)c3ccncc3)cn2C)cc1.Cl reading="134 to 136 °C"
compound=Cl.Cn1cc(C(=O)c2ccncc2)cc1C(=O)c1cccs1 reading="243 to 245 °C"
compound=Cl.Cn1cc(C(=O)c2ccc(F)cc2)cc1C(=O)c1cccnc1 reading="220 to 223 °C"
